Test system: Porcine atria myofibrils (atrial myosin ATPase)
Test: Myofibril ATPase assay, porcine atria myofibrils
Type: biochemical
Conditions: porcine atria myofibrils; Y75 value (75% activity relative to no compound)
Description: Example 1. Myofibril ATPase Assay Myofibril ATPase assays are known in the art to be useful in evaluating small molecules for the treatment of HCM and other cardiac indications. Myosin ATPase activity is assessed by using a coupled reaction system, in which ADP generated by the myosin ATPase function is coupled to the disappearance of NADH through the pyruvate kinase/lactate dehydrogenase (PK-LDH) system. […]
QUANTITY NAME: Atrial EC25 (nM)

Cc1nccc2[nH]c(=O)c(CC(=O)N[C@@H](C)c3ccc(C#N)cn3)c(C)c12 (single isomer, unassigned) [compound 254] ... 18170
C[C@H](NC(=O)[C@@H](C)c1cc2c(C3CC3)nccc2[nH]c1=O)c1ccc(F)cc1F (single isomer, unassigned) [compound 356] ... 100000
Cc1c(CC(=O)N[C@@H](C)c2ccc(C#N)cc2F)c(=O)[nH]c2ccnc(OC3CC3)c12 [compound 202] ... 110
C[C@H](NC(=O)Cc1c(C(F)(F)F)c2c(Cl)nccc2[nH]c1=O)c1ccc(F)cc1F [compound 428] ... 1350
Cc1nccc2[nH]c(=O)c(CC(=O)Nc3c[nH]c4cc(F)cc(F)c34)c(C)c12 [compound 228] ... 100000

I = Cc1nccc2[nH]c(=O)c(CC(=O)N[C@@H](CO)c3ccc(F)cc3F)c(C)c12 (single isomer, unassigned) [compound 396]
II = Cc1ccc2[nH]c(=O)c(CC(=O)N[C@H](C)c3ncc(C#N)cc3F)cc2n1 [compound 462]
Hi, I'm comparing I with II and wondering which one has the bigger number for Atrial EC25. Any idea? Pick one and reply with its label.
II
(II: 65720 nM, I: 1180 nM)

1 = CCc1nccc2[nH]c(=O)c(CC(=O)N[C@@H](C)c3ccc(F)cc3F)cc12 [compound 437]
2 = Cc1nc(C#N)ncc1[C@@H](C)NC(=O)Cc1c(C)c2c(C)nccc2[nH]c1=O [compound 464]
Hi, I'm comparing 1 with 2 and wondering which one has the bigger number for Atrial EC25. Any idea? Pick one and reply with its label.
1
(1: 91430 nM, 2: 370 nM)

###

system: Porcine atria myofibrils (atrial myosin ATPase); test: Myofibril ATPase assay, porcine atria myofibrils; assay type: biochemical; settings: Y75 value (no ‡ mark); porcine atria myofibrils
QUANTITY NAME: Atrial EC25 (µM)

Cc1c(C(F)(F)C(=O)NC(C)c2cccc(C#N)n2)c(=O)[nH]c2ccc(F)c(F)c12 (single isomer, unassigned) [Compound 2587] ... 5.60

A = Cc1c(CC(=O)N[C@@H](CO)c2ccc(F)cc2F)c(=O)[nH]c2cccc(C#N)c12 (single isomer, unassigned) [compound 90]
B = C[C@H](NC(=O)[C@@H](C)c1c(C(F)(F)F)c2c(F)cccc2[nH]c1=O)c1ccc(F)cc1F (single isomer, unassigned) [compound 97]
C = N#Cc1cnc2c(c1)CC[C@@H]2NC(=O)Cc1cc2c(F)c(F)ccc2[nH]c1=O (single isomer, unassigned) [compound 8]
Rank descending by Atrial EC25. Output spec: a listing of the labels in the requested order.
C, A, B
(C: 100.00 µM, A: 23.51 µM, B: 0.19 µM)

###

tested on: Rabbit Psoas myofibrils (skeletal myosin ATPase); assay: Myofibril ATPase assay, rabbit psoas (skeletal) myofibrils; type: biochemical; conditions: rabbit psoas myofibrils; Y75 value
QUANTITY NAME: Skeletal EC25 (nM)

// solved cases for Skeletal EC25 follow
Cc1nccc2[nH]c(=O)c(CC(=O)N[C@H](CO)c3ccccn3)c(C)c12 (single isomer, unassigned) ... 100000
Cc1nccc2[nH]c(=O)c(CC(=O)N[C@@H]3COc4cc(F)cc(F)c43)c(C)c12 (single isomer, unassigned) ... 20
C[C@H](NC(=O)[C@H](C)c1cc2c(C#N)nccc2[nH]c1=O)c1ccc(F)cc1F (single isomer, unassigned) ... 50

1 = Cc1ccc2[nH]c(=O)c(CC(=O)N[C@H](C)c3ncc(C#N)cc3F)cc2n1
2 = C[C@H](NC(=O)[C@@H](C)c1c(C(F)(F)F)c2cnccc2[nH]c1=O)c1ccc(F)cc1F (single isomer, unassigned)
3 = Cc1c(CC(=O)N[C@@H](C)c2ncc(C#N)cc2F)c(=O)[nH]c2ccc(C(F)(F)F)nc12
Task for the reader: rank each entry by its Skeletal EC25, from the minimum upward. Output spec: a listing of the labels in the requested order.
3, 2, 1

1 = Cc1c(CC(=O)N[C@H](C)c2ncc(F)cc2F)c(=O)[nH]c2ccnc(C#N)c12 (single isomer, unassigned)
2 = Cc1nccc2[nH]c(=O)c(CC(=O)N[C@H](C)c3ccccn3)c(C)c12 (single isomer, unassigned)
Hi, I'm comparing 1 with 2 and wondering which one has the bigger number for Skeletal EC25. Any idea? Pick one and reply with its label.
2

###

tested on: Rabbit Psoas myofibrils (skeletal myosin ATPase); experiment: Myofibril ATPase assay, rabbit psoas (skeletal) myofibrils; format: biochemical; settings: rabbit psoas myofibrils; Y75 value
QUANTITY NAME: Skeletal EC25 (nM)

// solved cases for Skeletal EC25 follow
Cc1nccc2[nH]c(=O)c(CC(=O)N[C@@H](C)c3ccccn3)c(C)c12 (single isomer, unassigned) ... 1570
Cc1c(CC(=O)N[C@H](CO)c2ccc(F)cc2F)c(=O)[nH]c2ccnc(C(F)(F)F)c12 ... 100000
Cc1c(CC(=O)N[C@@H](C)c2ccc(F)cc2F)c(=O)[nH]c2ccnc(Cl)c12 ... 20

1 = Cc1c(CC(=O)N[C@H](C)c2ccc(C#N)cn2)c(=O)[nH]c2ccnc(C#N)c12
2 = Cc1nccc2[nH]c(=O)c(CC(=O)N[C@@H](C)c3ccc(C#N)nn3)c(C)c12
Hi, I'm comparing 1 with 2 and wondering which one has the bigger number for Skeletal EC25. Any idea? Pick one and reply with its label.
2
(2: 100000 nM, 1: 620 nM)

###

tested on: Rabbit Psoas myofibrils (skeletal myosin ATPase); test: Myofibril ATPase assay, rabbit psoas (skeletal) myofibrils; type: biochemical; settings: ‡ Y125 value, not a Y75 value (125% activity relative to no compound); rabbit psoas myofibrils
A collection of compounds and their measured Skeletal EC25

C[C@H](NC(=O)C1(c2cc3cc(F)ccc3[nH]c2=O)CC1)c1cc(C#N)ccn1 (single isomer, unassigned) ... 100.00‡ μM
Cc1c(C2(C(=O)N[C@@H](C)c3cccc(C#N)n3)CC2)c(=O)[nH]c2ccc(F)c(F)c12 (single isomer, unassigned) ... 45.96‡ μM
Cc1c(C(F)(F)C(=O)NC(C)c2cccc(C#N)n2)c(=O)[nH]c2ccc(F)c(F)c12 (single isomer, unassigned) ... 19.03‡ μM
C[C@H](NC(=O)C1(c2cc3cc(F)ccc3[nH]c2=O)CC1)c1cccc(C#N)n1 (single isomer, unassigned) ... 51.07‡ μM
C[C@@H](NC(=O)[C@H](C)c1cc2c(F)c(F)ccc2[nH]c1=O)c1ncc(C#N)cc1F (single isomer, unassigned) ... 100.00‡ μM
C[C@@H](NC(=O)C1(c2cc3cc(F)ccc3[nH]c2=O)CC1)c1cc(C#N)ccn1 (single isomer, unassigned) ... 77.37‡ μM

Any idea what its Skeletal EC25 is? The compound is Cc1c(C(F)(F)C(=O)N[C@@H](C)c2cccc(C#N)n2)c(=O)[nH]c2ccc(F)cc12 (single isomer, unassigned)
100.00‡ μM

Lookup Cc1c(C(F)(F)C(=O)N[C@H](C)c2nccc(C#N)n2)c(=O)[nH]c2ccc(F)cc12 (single isomer, unassigned)
100.00‡ μM

Lookup Cc1c(CC(=O)N[C@@H](C)c2ncc(C#N)cn2)c(=O)[nH]c2ccc(C#N)cc12 (single isomer, unassigned)
73.42‡ μM

Lookup C[C@H](NC(=O)Cc1cc2c(C#N)c(F)ccc2[nH]c1=O)c1ncc(C#N)cn1 (single isomer, unassigned)
100.00‡ μM

###

test system: Porcine atria myofibrils (atrial myosin ATPase); experiment: Myofibril ATPase assay, porcine atria myofibrils; type: biochemical; settings: Y75 value (no ‡ mark); porcine atria myofibrils
QUANTITY NAME: Atrial EC25 (µM)

Cc1c(CC(=O)N[C@H](C)c2ncc(C#N)cn2)c(=O)[nH]c2ccc(F)c(C#N)c12 (single isomer, unassigned) ... 0.49

a = C[C@@H](NC(=O)C1(c2cc3c(F)c(F)ccc3[nH]c2=O)CC1)c1cnc(C#N)cn1 (single isomer, unassigned)
b = N#Cc1cnc2c(n1)CC[C@@H]2NC(=O)Cc1cc2cc(F)c(F)cc2[nH]c1=O
Hi, I'm comparing a with b and wondering which one has the bigger number for Atrial EC25. Any idea? Pick one and reply with its label.
b

###

tested on: Porcine atria myofibrils (atrial myosin ATPase); experiment: Myofibril ATPase assay, porcine atria myofibrils; type: biochemical; conditions: porcine atria myofibrils; Y75 value (75% activity relative to no compound)
QUANTITY NAME: Atrial EC25 (µM)

a = CC(C(=O)N[C@@H](C)c1ccc(F)cc1F)c1cc2c(C(F)(F)F)nccc2[nH]c1=O (single isomer, unassigned)
b = Cc1c(CC(=O)N[C@H](c2ccc(F)cc2F)C(C)(C)O)c(=O)[nH]c2ccnc(C#N)c12 (single isomer, unassigned)
c = Cc1nccc2[nH]c(=O)c([C@H](C)C(=O)N[C@H](C)c3ncc(C#N)cc3F)c(C)c12 (single isomer, unassigned)
d = Cc1ccc([C@H](C)NC(=O)Cc2c(C)c3c(C)nccc3[nH]c2=O)cc1 (single isomer, unassigned)
Put the items in sequence by Atrial EC25, from largest down. Output spec: a listing of the labels in the requested order.
b, d, a, c
